Exercise: for every item that follows, state its recorded pIC50.
target: human CLK1 (Homo sapiens); construct: Recombinant human CLK1 (129-end); GST (N); purchased SignalChem C57-11G; host or cells: Sf9 insect cells; assay: CLK1 enzyme assay (ADP-Glo); type: biochemical; conditions: ADP-Glo, ATP 10 μM; read-out: CLK1 IC50
Sequence (P49759 129-484 limits assumed): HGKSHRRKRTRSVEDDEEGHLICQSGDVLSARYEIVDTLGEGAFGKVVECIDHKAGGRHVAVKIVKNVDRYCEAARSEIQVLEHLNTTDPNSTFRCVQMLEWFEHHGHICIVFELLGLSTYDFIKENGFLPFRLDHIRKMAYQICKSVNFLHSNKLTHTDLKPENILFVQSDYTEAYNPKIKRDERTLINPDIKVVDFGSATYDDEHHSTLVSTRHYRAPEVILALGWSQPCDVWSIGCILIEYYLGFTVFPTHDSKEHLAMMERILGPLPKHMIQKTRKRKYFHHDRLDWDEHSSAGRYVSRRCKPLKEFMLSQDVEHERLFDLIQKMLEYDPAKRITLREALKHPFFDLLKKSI
pIC50: −log10 of the molar value.

## Input What value of measured pIC50 is listed for O=C1NC(Nc2ccc3ncsc3c2)=N/C1=C\c1ccc2ncsc2c1 ?
## Output > 7.00

## Input Here is the next molecule: Cn1ncc2ccc(/C=C3\N=C(Nc4ccc5ncsc5c4)NC3=O)cc21
## Output < 5.00

## Input Here is the next molecule: Cn1cnc2ccc(NC3=N/C(=C\c4ccc5ncsc5c4)C(=O)N3)cc21
## Output > 7.00

## Input Here is the next molecule: Cn1ncc2cc(/C=C3\N=C(Nc4ccc5ncsc5c4)NC3=O)ccc21
## Output < 5.00

## Input Here is the next molecule: O=C1NC(Nc2ccccc2)=N/C1=C\c1ccc2cc[nH]c2c1
## Output < 5.00

## Input Here is the next molecule: CN(C1=N/C(=C\c2ccc3ncccc3c2)C(=O)N1)c1ccc2ncsc2c1
## Output 6.00 to 7.00

## Input Here is the next molecule: O=C1NC(Nc2ccc3nc[nH]c3c2)=N/C1=C\c1ccc2ncsc2c1
## Output 6.00 to 7.00

## Input Here is the next molecule: COCCN(C1=N/C(=C\c2ccc3ncsc3c2)C(=O)N1)c1ccc2ncsc2c1
## Output > 7.00

## Input Here is the next molecule: O=C1NC(N(Cc2ccccc2)c2ccc3ncsc3c2)=N/C1=C\c1ccc2ncsc2c1
## Output > 7.00

## Input Here is the next molecule: CN(CC1CC1)C1=N/C(=C\c2ccc3c(c2)OCCO3)C(=O)N1
## Output 5.00 to 6.00

## Input Here is the next molecule: O=C1NC(N(CCO)c2ccccc2)=N/C1=C\c1ccc2c(c1)OCO2
## Output 6.00 to 7.00

## Input Here is the next molecule: O=C1NC(N(CC2CC2)c2ccccc2)=N/C1=C\c1ccc2c(c1)OCO2
## Output 6.00 to 7.00

## Input Here is the next molecule: CN(C1=N/C(=C\c2ccc3c(c2)OCO3)C(=O)N1)c1cccnc1
## Output 6.00 to 7.00

## Input Here is the next molecule: CN(C1=N/C(=C\c2ccc3c(c2)OCO3)C(=O)N1)c1ccccc1
## Output 6.00 to 7.00

## Input Here is the next molecule: O=C1NC(N(Cc2ccccc2)c2ccccc2)=N/C1=C\c1ccc2ncsc2c1
## Output > 7.00

## Input Here is the next molecule: Cc1nc2ccc(NC3=N/C(=C\c4ccc5ncsc5c4)C(=O)N3)cc2s1
## Output > 7.00

## Input Here is the next molecule: Cn1cnc2ccc(/C=C3\N=C(Nc4ccc5ncsc5c4)NC3=O)cc21
## Output > 7.00

## Input Here is the next molecule: CN(C1=N/C(=C\c2ccc3ncsc3c2)C(=O)N1)c1ccccc1
## Output 6.00 to 7.00

====

molecular target: human GSK3 beta (Homo sapiens); construct: Recombinant full-length human GSK3 beta (expressed in Sf9 insect cells with an N-terminal His tag); His (N); assay: GSK3 beta enzyme assay (ADP-Glo); details: ATP 25 μM, read-out: GSK3b IC50
Sequence (P49841 whole entry): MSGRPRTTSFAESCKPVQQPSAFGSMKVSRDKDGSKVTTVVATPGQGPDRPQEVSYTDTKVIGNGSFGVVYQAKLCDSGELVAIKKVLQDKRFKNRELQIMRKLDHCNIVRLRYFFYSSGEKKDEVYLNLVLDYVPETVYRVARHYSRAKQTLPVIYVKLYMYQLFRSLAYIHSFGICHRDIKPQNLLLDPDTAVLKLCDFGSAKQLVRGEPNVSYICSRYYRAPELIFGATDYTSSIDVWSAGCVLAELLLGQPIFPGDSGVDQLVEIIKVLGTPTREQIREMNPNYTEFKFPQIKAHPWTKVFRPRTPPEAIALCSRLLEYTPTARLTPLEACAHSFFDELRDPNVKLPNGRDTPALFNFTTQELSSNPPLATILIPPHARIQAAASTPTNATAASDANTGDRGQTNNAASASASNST
Experimental Endpoint: IC50

## Input What value of measured IC50 is listed for O=C1NC(Nc2ccccc2)=N/C1=C\c1ccc2ncsc2c1 ?
## Output 0.1 to 1 µM

## Input Here is the next compound: O=C1NC(NC23CC4CC(CC(C4)C2)C3)=N/C1=C\c1ccc2scnc2c1
## Output > 10 µM

## Input Here is the next compound: O=C1NC(Nc2ccccc2)=N/C1=C\c1ccc2cn[nH]c2c1
## Output > 10 µM

## Input Here is the next compound: O=C1NC(Nc2ccc3nc(Nc4ccccc4)sc3c2)=N/C1=C\c1ccc2ncsc2c1
## Output > 10 µM

## Input Here is the next compound: O=C1NC(N(Cc2ccccc2)c2ccccc2)=N/C1=C\c1ccc2[nH]cnc2c1
## Output > 10 µM

## Input Here is the next compound: Cn1cnc2cc(NC3=N/C(=C\c4ccc5ncsc5c4)C(=O)N3)ccc21
## Output 0.1 to 1 µM

## Input Here is the next compound: CN(C1=N/C(=C\c2ccc3ncsc3c2)C(=O)N1)c1ccc2ncsc2c1
## Output 1 to 10 µM

## Input Here is the next compound: CN(C1=N/C(=C\c2ccc3[nH]cnc3c2)C(=O)N1)c1ccccc1
## Output > 10 µM

## Input Here is the next compound: O=C1/C(=C/c2ccc3ncsc3c2)N=C(N(Cc2ccccc2)c2ccccc2)N1Cc1ccccc1
## Output > 10 µM

## Input Here is the next compound: O=C1NC(Nc2ccccc2)=N/C1=C\c1ccc(=O)[nH]c1
## Output > 10 µM

## Input Here is the next compound: COc1ccc(N(C)C2=N/C(=C\c3ccc4c(c3)OCO4)C(=O)N2)cc1
## Output > 10 µM

## Input Here is the next compound: O=C1NC(N(Cc2ccccc2)c2ccc3ncsc3c2)=N/C1=C\c1ccc2ncsc2c1
## Output > 10 µM

## Input Here is the next compound: O=C1NC(=S)N/C1=C\c1ccc2sccc2c1
## Output 1 to 10 µM

## Input Here is the next compound: NC(=O)CCN(C1=N/C(=C\c2ccc3c(c2)OCO3)C(=O)N1)c1ccccc1
## Output > 10 µM

## Input Here is the next compound: O=C1NC(Nc2ccc3nc[nH]c3c2)=N/C1=C\c1ccc2ncsc2c1
## Output 1 to 10 µM

## Input Here is the next compound: CN(C1=N/C(=C\c2ccc3ncsc3c2)C(=O)N1)c1ccc(Cl)cc1
## Output > 10 µM

## Input Here is the next compound: O=C1NC(Nc2ccccc2)=N/C1=C\c1ccc2nccnc2c1
## Output 1 to 10 µM

## Input Here is the next compound: O=C1NC(Nc2ccc3ncsc3c2)=N/C1=C\c1ccc2c(c1)OCO2
## Output > 10 µM

## Input Here is the next compound: O=C1NC(N(CC2CC2)c2ccccc2)=N/C1=C\c1ccc2c(c1)OCO2
## Output > 10 µM

## Input Here is the next compound: CN(C1=N/C(=C\c2ccc3ncsc3c2)C(=O)N1)c1ccc2c(c1)ncn2C
## Output 1 to 10 µM

====

Exercise: for every item that follows, state its recorded pIC50.
Biological target: human HIPK1 (Homo sapiens, UniProt Q86Z02)
Construct: Recombinant human HIPK1 (156-555); GST (N); purchased SignalChem H03-11G; host or cells: Sf9 insect cells
Sequence (Q86Z02 156-555): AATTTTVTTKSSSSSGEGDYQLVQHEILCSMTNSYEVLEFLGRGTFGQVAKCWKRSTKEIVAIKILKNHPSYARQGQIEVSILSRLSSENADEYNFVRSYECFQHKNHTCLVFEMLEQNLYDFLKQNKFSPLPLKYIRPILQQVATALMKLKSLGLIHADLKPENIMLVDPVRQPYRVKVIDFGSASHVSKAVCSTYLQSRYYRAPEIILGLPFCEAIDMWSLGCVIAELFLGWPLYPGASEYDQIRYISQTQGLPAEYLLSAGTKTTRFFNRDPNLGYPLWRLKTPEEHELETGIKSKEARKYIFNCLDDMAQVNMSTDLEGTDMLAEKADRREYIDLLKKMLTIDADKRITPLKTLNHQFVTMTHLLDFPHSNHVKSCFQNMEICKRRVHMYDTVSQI
Experiment: HIPK1 enzyme assay (ADP-Glo)
Format: biochemical
Settings: ADP-Glo, ATP 5 μM; read-out: HIPK1 IC50
Method: The ability of compounds to inhibit human HIPK1 kinase activities was determined using a commercially available ADP-Glo™ Kinase Assay kit (Promega, Cat #V9102) according to the manufacturer's protocol. Recombinant human HIPK1 (156-555) (expressed in Sf9 insect cells with an N-terminal GST tag) was purchased from SignalChem (Cat #H03-11G). […] The light generated is measured using a luminometer. […]
pIC50: −log10 of the molar value.

## Input What value of measured pIC50 is listed for O=C1NC(N(CC2CC2)c2ccccc2)=N/C1=C\c1ccc2c(c1)OCO2 [Example 10] ?
## Output < 5.00

## Input Here is the next molecule: CN(CCN1CCOCC1)C1=N/C(=C\c2ccc3c(c2)OCO3)C(=O)N1 [Example 20]
## Output < 5.00

## Input Here is the next molecule: COc1ccccc1N(C)C1=N/C(=C\c2ccc3c(c2)OCO3)C(=O)N1 [Example 21]
## Output < 5.00

## Input Here is the next molecule: O=C1NC(Nc2ccc3ncsc3c2)=N/C1=C\c1ccc2c(c1)OCCO2 [Example 74]
## Output < 5.00

## Input Here is the next molecule: O=C1NC(N(CC2CC2)c2ccccc2)=N/C1=C\c1ccc2c(c1)OCCO2 [Example 39]
## Output < 5.00

## Input Here is the next molecule: O=C1NC(Nc2ccc3ncsc3c2)=N/C1=C\c1ccc2occc2c1 [Example 59]
## Output < 5.00

## Input Here is the next molecule: CN(C1=N/C(=C\c2ccc3ncsc3c2)C(=O)N1)c1ccc(N)cc1 [Example 44]
## Output 5.00 to 6.00

## Input Here is the next molecule: CC(C)Nc1nc2ccc(NC3=N/C(=C\c4ccc5ncsc5c4)C(=O)N3)cc2s1 [Example 100]
## Output < 5.00

## Input Here is the next molecule: O=C1NC(Nc2ccccc2)=N/C1=C\c1ccc2ncccc2c1 [Example 53]
## Output < 5.00

## Input Here is the next molecule: CN(CCN1CCOCC1)C1=N/C(=C\c2ccc3ncsc3c2)C(=O)N1 [Example 32]
## Output < 5.00

## Input Here is the next molecule: CN(Cc1ccccc1)C1=N/C(=C\c2ccc3ncsc3c2)C(=O)N1 [Example 28]
## Output 5.00 to 6.00

## Input Here is the next molecule: Cn1ncc2ccc(/C=C3\N=C(Nc4ccc5ncsc5c4)NC3=O)cc21 [Example 80]
## Output < 5.00

## Input Here is the next molecule: Cc1nc2ccc(NC3=N/C(=C\c4ccc5ncsc5c4)C(=O)N3)cc2s1 [Example 90]
## Output < 5.00

## Input Here is the next molecule: CC(=O)N(C1=N/C(=C\c2ccc3ncsc3c2)C(=O)N1)c1ccc2ncsc2c1 [Example 91]
## Output 6.00 to 7.00

## Input Here is the next molecule: CN(C1=N/C(=C\c2ccc3ncsc3c2)C(=O)N1)c1ccccc1 [Example 7]
## Output 5.00 to 6.00

## Input Here is the next molecule: O=C1NC(N(Cc2ccccc2)c2ccccc2)=N/C1=C\c1ccc2c(c1)OCO2 [Example 22]
## Output < 5.00

## Input Here is the next molecule: O=C1NC(Nc2ccccc2)=N/C1=C\c1cncs1 [Example 15]
## Output < 5.00

## Input Here is the next molecule: O=C1NC(Nc2ccc3nccnc3c2)=N/C1=C\c1ccc2ncsc2c1 [Example 82]
## Output < 5.00
